tested on: PPARg:RXRa IVT, anti-PPARg (NR concentration 270 nM, RXRa partner concentration 90 nM); assay: PBM binding z-score (relative to random genomic background probes); higher = stronger binding; sequences stand for … in GC…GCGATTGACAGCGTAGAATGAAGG
Threshold rule: PBM binding z-score greater than or equal to 3 is 1; below that, -1.

A selection of reference data follows.
# Seq Text, Classification
rows = [
    ("CCTGCTACGTCATGGTCAGCTAATCTACAGTATG", -1),
    ("GGAAGGAGGGCAAGTTGATAGCAGAGTTTGATGG", 1),
    ("ACTATTAGTTGAGACGCGGGCAACCGATAGGTTG", -1),
    ("TCTTGTAGATCAAAGGTTAAGAGAGCCGAAGCCT", 1),
]

Check this sequence for PBM binding z-score at or above 3: `ATACCAAGGTGATCGTTAGGTCGTTGATACTAAC`
-1

Check the entry `TCTAGTTGCTCAAAGGTCACACACTCGAAATGCG` : does PBM binding z-score equal or exceed 3?
1

Please indicate if the recorded PBM binding z-score for `CAAACTAGGTCAAAGGTGAAAGTCGAGCCAACCA` meets or exceeds 3.
1
